Origin of the recorded values: patent US20180016324A1

ASSAY_TARGET: T1, ZIKV (prM80E) with a C-terminal myc-myc-hexahistidine tag (Zika virus, UniProt A0A024B7W1 104-694)
T1 construct: also called ZIKV (prM80E)-mmH; ZIKV-mmH
METHOD_NOTES: SPR, mAb captured, 37C, pH 5.0 chase
ASSAY_METRIC: koff (s⁻¹)
One number for each entry, in s⁻¹.

Below is a list of binders. For each, state its recorded koff.
1. H4H25640P (antibody, V domains shown) VH: QVQLVESGGGVVQPGRSLRLSCAASGFTFSYYGMHWVRQAPGKGLEWVAVILYDGSNKFYSDSVKGRFTISRDNSRNTLYLQMNSLRLEDTAVYYCAKDYGGRFDYWGQGTLVTVSS VL: EIVLTQSPGTLSLSSGERATLSCRASQSVSNKYLAWYQQKPGQVPRLLIYGASNRATGIPDRFSGSGSGTDFTLTINRLEPEDFAVFYCQQYGSTPSTFGQGTKVEIK
2. H4H25619P (antibody, V domains shown) VH: QVQLVESGGGVVQPGRSLRLSCTASGFTFSTYGMHWVRHVPGKGLEWVAIVWYDGSDKSYAASVKGRFTISRDNSKNTLFLQMNSLRAEDTAVYYCARQGTYYYYGMDVWGQGTTVTVSS VL: DIQMTQSPSSLSASVGDRVTITCRSSQTITNYLNWYQQRPGKAPKLLIYAASSLQSGVPSRFSGSGSGTDFTLTISSLQPEDFATYYCQQSYSTPPITFGQGTKLEIKR

1: 0.00337; 2: 0.000548

Look up koff for this binder: H4H25591P (antibody, V domains shown) VH: QVQLVESGGGVVQPGRSLRLSCAASGFTFSYSGMHWVRQAPGKGLEWVAVISYDGINKYYADSVKGRFTISRDNSKNTLYLQMNSLRPEDTAVYYCAKDRGGRFDPWGQGTLVTVSS VL: DIQMTQSPSSLSASVGDRVTITCRASQGISNYLAWYQQKPGKVPNLLIYGASTLHSGVPSRFSGSGSGTDFTLTISSLQPADVATYYCQKYNSAPLTFGGGTKVEIK
0.0148
